molecular target: Mer (Homo sapiens, UniProt Q12866); experiment: Mer IC50; type: biochemical; settings: Table 7 (General Procedure G compounds)
Sequence (Q12866 21-999): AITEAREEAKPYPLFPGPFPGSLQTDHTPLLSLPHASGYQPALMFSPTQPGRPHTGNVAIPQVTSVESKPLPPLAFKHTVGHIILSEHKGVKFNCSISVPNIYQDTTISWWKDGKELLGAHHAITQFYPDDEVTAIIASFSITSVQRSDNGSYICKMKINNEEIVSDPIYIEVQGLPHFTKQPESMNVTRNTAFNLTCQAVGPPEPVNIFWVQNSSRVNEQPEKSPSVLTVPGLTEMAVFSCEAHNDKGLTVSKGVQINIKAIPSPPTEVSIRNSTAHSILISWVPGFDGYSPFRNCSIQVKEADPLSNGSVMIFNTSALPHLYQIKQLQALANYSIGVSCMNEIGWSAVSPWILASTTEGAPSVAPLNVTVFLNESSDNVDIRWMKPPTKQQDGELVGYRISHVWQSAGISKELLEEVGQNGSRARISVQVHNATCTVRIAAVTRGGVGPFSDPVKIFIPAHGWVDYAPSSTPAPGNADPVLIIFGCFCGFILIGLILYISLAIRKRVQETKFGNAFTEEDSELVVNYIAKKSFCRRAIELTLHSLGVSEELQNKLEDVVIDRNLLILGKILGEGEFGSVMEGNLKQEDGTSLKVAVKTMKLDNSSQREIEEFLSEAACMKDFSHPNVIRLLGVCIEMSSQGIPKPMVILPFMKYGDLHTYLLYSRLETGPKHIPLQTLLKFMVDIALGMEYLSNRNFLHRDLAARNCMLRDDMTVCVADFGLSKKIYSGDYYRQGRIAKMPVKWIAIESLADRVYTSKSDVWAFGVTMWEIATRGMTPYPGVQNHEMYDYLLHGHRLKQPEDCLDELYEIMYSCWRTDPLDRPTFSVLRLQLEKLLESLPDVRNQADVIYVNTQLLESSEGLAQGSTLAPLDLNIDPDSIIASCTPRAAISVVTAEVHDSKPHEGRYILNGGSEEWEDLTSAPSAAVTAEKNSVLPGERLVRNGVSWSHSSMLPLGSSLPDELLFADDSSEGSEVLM

{"columns": ["molecule", "IC50"],
 "data": [
  ["CCCCNc1ncc(-c2cncc(N)n2)c(N[C@H]2CC[C@H](O)CC2)n1 [UNC3118A]", "< 10 nM"]
]}
